Experiment: Protein binding in dog plasma at 1 uM by LC-MS/MS analysis
Assay type: ADME, cell-free, Canis lupus familiaris
Conditions: read-out: PPB

>  <SMILES_NOTATION>
C[C@H](Nc1ncnc(N)c1C#N)c1nn2ccc(C#N)c2c(=O)n1-c1ccccc1

>  <fraction unbound at 1 µM>
0.35 to 0.4

$$$$

====

Molecular target: Phosphatidylinositol 4,5-bisphosphate 3-kinase catalytic subunit delta isoform (Homo sapiens, UniProt O00329)
Sequence (O00329 whole entry, canonical isoform): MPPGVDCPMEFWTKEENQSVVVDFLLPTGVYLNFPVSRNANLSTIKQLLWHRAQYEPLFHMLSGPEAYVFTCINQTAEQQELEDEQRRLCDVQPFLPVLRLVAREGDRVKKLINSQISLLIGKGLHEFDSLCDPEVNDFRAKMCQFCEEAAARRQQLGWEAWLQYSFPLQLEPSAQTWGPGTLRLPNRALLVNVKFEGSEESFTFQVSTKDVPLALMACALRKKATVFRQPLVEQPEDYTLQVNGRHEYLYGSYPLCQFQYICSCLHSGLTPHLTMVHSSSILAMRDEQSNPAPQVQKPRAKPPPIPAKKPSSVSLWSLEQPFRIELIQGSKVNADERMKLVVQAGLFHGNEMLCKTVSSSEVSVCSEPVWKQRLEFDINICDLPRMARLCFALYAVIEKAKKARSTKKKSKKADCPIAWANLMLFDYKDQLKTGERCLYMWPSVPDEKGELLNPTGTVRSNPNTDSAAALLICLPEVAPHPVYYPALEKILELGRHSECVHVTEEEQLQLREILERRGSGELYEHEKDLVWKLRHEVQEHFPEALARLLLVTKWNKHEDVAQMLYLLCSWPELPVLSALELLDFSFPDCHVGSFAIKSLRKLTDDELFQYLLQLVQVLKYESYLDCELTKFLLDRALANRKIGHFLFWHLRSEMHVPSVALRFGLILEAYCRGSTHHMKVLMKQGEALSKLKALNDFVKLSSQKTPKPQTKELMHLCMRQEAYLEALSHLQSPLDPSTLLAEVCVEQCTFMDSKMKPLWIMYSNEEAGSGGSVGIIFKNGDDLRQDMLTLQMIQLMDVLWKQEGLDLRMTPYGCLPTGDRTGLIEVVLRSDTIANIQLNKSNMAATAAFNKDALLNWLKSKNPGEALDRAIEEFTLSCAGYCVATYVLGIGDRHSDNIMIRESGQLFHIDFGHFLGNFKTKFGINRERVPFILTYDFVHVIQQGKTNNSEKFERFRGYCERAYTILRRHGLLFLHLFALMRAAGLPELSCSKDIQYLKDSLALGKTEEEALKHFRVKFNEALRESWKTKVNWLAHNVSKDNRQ
Assay: Inhibition of PI3Kdelta in human THP1 cells assessed as reduction in MCSF-stimulated akt phosphorylation at Thr308 preincubated for 30 mins followed by MCSF stimulation for 3 mins by ELISA

>  <SMILES_NOTATION>
Cc1ccc2c(=O)n(-c3ccccc3)c([C@H](C)Nc3ncnc(N)c3C#N)nn12

>  <IC50 (nM)>
11

$$$$
>  <SMILES_NOTATION>
C[C@H](Nc1ncnc2[nH]cc(F)c12)c1nn2cccc2c(=O)n1-c1ccccc1

>  <IC50 (nM)>
47

$$$$
>  <SMILES_NOTATION>
C[C@H](Nc1nc(N)nc(N)n1)c1nn2cccc2c(=O)n1-c1ccccc1

>  <IC50 (nM)>
76

$$$$
>  <SMILES_NOTATION>
Cc1ccn2nc([C@H](C)Nc3ncnc(N)c3C#N)n(-c3ccccc3)c(=O)c12

>  <IC50 (nM)>
1.6

$$$$
>  <SMILES_NOTATION>
N#Cc1c(N)ncnc1N1CC(F)(F)C[C@H]1c1nn2cccc2c(=O)n1-c1ccccc1

>  <IC50 (nM)>
370

$$$$
>  <SMILES_NOTATION>
CC[C@H](Nc1ncnc(N)c1C#N)c1nn2cccc2c(=O)n1-c1ccccc1

>  <IC50 (nM)>
18

$$$$
